- Measured Target: T1, interleukin 18 binding protein (IL-18BP) (UniProt O95998 31-194)
- T1 sequence (looked up): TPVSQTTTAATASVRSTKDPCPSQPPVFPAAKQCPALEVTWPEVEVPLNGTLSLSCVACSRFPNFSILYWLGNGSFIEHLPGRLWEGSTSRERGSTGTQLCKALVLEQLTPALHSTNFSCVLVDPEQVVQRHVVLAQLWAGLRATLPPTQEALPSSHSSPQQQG
- Assay Remarks: cell-based or functional assay
Parameter: Ratio (-BP/+BP), DF-100,000

Binder	Parameter	Endpoint Result
IL-18 variant S36E, D37E, D40V, N41S, K53Y, S55V, H109Y (ligand) YFGKLESKLSVIRNLNDQVLFIDQGNRPLFEDMTDEEMRVSAPRTIFIISMYYDVQPRGMAVTISVKSEKISTLSSENKIISFKEMNPPDNIKDTKSDIIFFQRSVPGYDNKMQFESSSYEGYFLASEKERDLFKLILKKEDELGDRSIMFTVQNED	Ratio (-BP/+BP), DF-100,000	0.92
IL-18 variant K53H, S55G (ligand) YFGKLESKLSVIRNLNDQVLFIDQGNRPLFEDMTDSDMRDNAPRTIFIISMYHDGQPRGMAVTISVKSEKISTLSSENKIISFKEMNPPDNIKDTKSDIIFFQRSVPGHDNKMQFESSSYEGYFLASEKERDLFKLILKKEDELGDRSIMFTVQNED	Ratio (-BP/+BP), DF-100,000	1.04
IL-18 variant K53S, S55Y, P107M (ligand) YFGKLESKLSVIRNLNDQVLFIDQGNRPLFEDMTDSDMRDNAPRTIFIISMYSDYQPRGMAVTISVKSEKISTLSSENKIISFKEMNPPDNIKDTKSDIIFFQRSVMGHDNKMQFESSSYEGYFLASEKERDLFKLILKKEDELGDRSIMFTVQNED	Ratio (-BP/+BP), DF-100,000	0.76
IL-18 variant K53H, S55M, T63S (ligand) YFGKLESKLSVIRNLNDQVLFIDQGNRPLFEDMTDSDMRDNAPRTIFIISMYHDMQPRGMAVSISVKSEKISTLSSENKIISFKEMNPPDNIKDTKSDIIFFQRSVPGHDNKMQFESSSYEGYFLASEKERDLFKLILKKEDELGDRSIMFTVQNED	Ratio (-BP/+BP), DF-100,000	0.83
IL-18 variant T34L, S36V, D40A, N41S, K53G, S55W (ligand) YFGKLESKLSVIRNLNDQVLFIDQGNRPLFEDMLDVDMRASAPRTIFIISMYGDWQPRGMAVTISVKSEKISTLSSENKIISFKEMNPPDNIKDTKSDIIFFQRSVPGHDNKMQFESSSYEGYFLASEKERDLFKLILKKEDELGDRSIMFTVQNED	Ratio (-BP/+BP), DF-100,000	1.6
IL-18 variant K53H, S55M (ligand) YFGKLESKLSVIRNLNDQVLFIDQGNRPLFEDMTDSDMRDNAPRTIFIISMYHDMQPRGMAVTISVKSEKISTLSSENKIISFKEMNPPDNIKDTKSDIIFFQRSVPGHDNKMQFESSSYEGYFLASEKERDLFKLILKKEDELGDRSIMFTVQNED	Ratio (-BP/+BP), DF-100,000	1.03
IL-18 variant S7Y, K53H, S55M (ligand) YFGKLEYKLSVIRNLNDQVLFIDQGNRPLFEDMTDSDMRDNAPRTIFIISMYHDMQPRGMAVTISVKSEKISTLSSENKIISFKEMNPPDNIKDTKSDIIFFQRSVPGHDNKMQFESSSYEGYFLASEKERDLFKLILKKEDELGDRSIMFTVQNED	Ratio (-BP/+BP), DF-100,000	0.94
IL-18 variant K53T, S55G, P107A, H109Q (ligand) YFGKLESKLSVIRNLNDQVLFIDQGNRPLFEDMTDSDMRDNAPRTIFIISMYTDGQPRGMAVTISVKSEKISTLSSENKIISFKEMNPPDNIKDTKSDIIFFQRSVAGQDNKMQFESSSYEGYFLASEKERDLFKLILKKEDELGDRSIMFTVQNED	Ratio (-BP/+BP), DF-100,000	0.63
IL-18 variant L15I, K53H, S55M (ligand) YFGKLESKLSVIRNINDQVLFIDQGNRPLFEDMTDSDMRDNAPRTIFIISMYHDMQPRGMAVTISVKSEKISTLSSENKIISFKEMNPPDNIKDTKSDIIFFQRSVPGHDNKMQFESSSYEGYFLASEKERDLFKLILKKEDELGDRSIMFTVQNED	Ratio (-BP/+BP), DF-100,000	0.99
IL-18 variant S36F, N41E, K53W (ligand) YFGKLESKLSVIRNLNDQVLFIDQGNRPLFEDMTDFDMRDEAPRTIFIISMYWDSQPRGMAVTISVKSEKISTLSSENKIISFKEMNPPDNIKDTKSDIIFFQRSVPGHDNKMQFESSSYEGYFLASEKERDLFKLILKKEDELGDRSIMFTVQNED	Ratio (-BP/+BP), DF-100,000	1.01
IL-18 variant T34N, S36Y, D40H, N41T, K53G, S55Y (ligand) YFGKLESKLSVIRNLNDQVLFIDQGNRPLFEDMNDYDMRHTAPRTIFIISMYGDYQPRGMAVTISVKSEKISTLSSENKIISFKEMNPPDNIKDTKSDIIFFQRSVPGHDNKMQFESSSYEGYFLASEKERDLFKLILKKEDELGDRSIMFTVQNED	Ratio (-BP/+BP), DF-100,000	1.02
IL-18 variant T34S, S36L, D37E, D40Y, N41M, K53T, S55K, P107K, H109Q (ligand) YFGKLESKLSVIRNLNDQVLFIDQGNRPLFEDMSDLEMRYMAPRTIFIISMYTDKQPRGMAVTISVKSEKISTLSSENKIISFKEMNPPDNIKDTKSDIIFFQRSVKGQDNKMQFESSSYEGYFLASEKERDLFKLILKKEDELGDRSIMFTVQNED	Ratio (-BP/+BP), DF-100,000	0.98
IL-18 variant K53H, S55Y, Q56H (ligand) YFGKLESKLSVIRNLNDQVLFIDQGNRPLFEDMTDSDMRDNAPRTIFIISMYHDYHPRGMAVTISVKSEKISTLSSENKIISFKEMNPPDNIKDTKSDIIFFQRSVPGHDNKMQFESSSYEGYFLASEKERDLFKLILKKEDELGDRSIMFTVQNED	Ratio (-BP/+BP), DF-100,000	1.03
